Every entry's value here was drawn from a collection of fitness landscapes (doi:10.1016/j.celrep.2020.107928).

Here the recorded one-hybrid fitness for binding parS DNA is given for each entry.
B1: Caulobacter ParB omega fusion; a variant is named by its letters at X, in order, B8GW30 (parent)
chain: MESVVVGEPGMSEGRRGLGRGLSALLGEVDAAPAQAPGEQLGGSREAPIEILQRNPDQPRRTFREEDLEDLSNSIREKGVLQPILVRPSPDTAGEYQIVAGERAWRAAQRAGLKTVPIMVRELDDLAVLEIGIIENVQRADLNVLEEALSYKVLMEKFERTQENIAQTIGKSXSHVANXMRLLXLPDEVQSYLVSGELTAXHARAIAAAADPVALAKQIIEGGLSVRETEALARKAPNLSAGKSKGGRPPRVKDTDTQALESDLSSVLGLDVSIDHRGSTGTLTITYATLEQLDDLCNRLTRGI

# Variants of: B1
# Assay Method Text: one-hybrid fitness for binding parS DNA (scaled: cognate 1, non-cognate 0); higher = stronger binding
# Test Parameters: with parS DNA site
Whole data set: some 81,000 sequences, median “one-hybrid fitness for binding parS DNA” near -0.17, cut for the highest 2% near 0.51. What follows is part of a selection rich in the highest values, with near analogues and random picks from the rest.

See these solved cases before continuing.
> print(dat)
   mutation.name  recorded.measurement
1           RILS                  1.04
2           RIRD                 ≤ 0.2
3           RAST                 0.911
4           IFWT                  0.24
5           RARF                  0.28
6           DRHA                 ≤ 0.2

Please report the recorded one-hybrid fitness for binding parS DNA for RGTH .
≤ 0.2

Reported one-hybrid fitness for binding parS DNA, variant RIVC : ____
0.942
